# Tested on: PEER;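 note: ALL cell lines in 384-well plates, five doses spanning 10,000-fold, each plate scaled between vehicle and 100 µmol/L benzalkonium chloride controls, sDSS an adapted area-under-curve metric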
# method.description: selective drug sensitivity score (sDSS, relative to normal bone marrow) (sDSS (score)); higher = more potent and effective on the cell line relative to normal bone marrow cells
# cond: 72 h
Class definitions on selective drug sensitivity score: group A: < -0.3; group B: ≥ -0.3 and < 1; group C: ≥ 1

Any idea which band O=C(O)CNC(=O)c1c(O)c2ccccc2n(Cc2ccccc2)c1=O [IOX-2] (top concentration 50000 nM) is in? group A

Any idea which band COc1cc(N2CCC(N3CCN(C)CC3)CC2)ccc1Nc1ncc(Cl)c(Nc2ccccc2P(C)(C)=O)n1 [Brigatinib] (top concentration 1000 nM) is in? group A

Any idea which band CCC(C)(C)C(=O)O[C@H]1C[C@@H](C)C=C2C=C[C@H](C)[C@H](CC[C@@H]3C[C@@H](O)CC(=O)O3)[C@H]21 [Simvastatin] (top concentration 10000 nM) is in? group C

Any idea which band COc1cccc(OCCCN)c1-c1cc(Nc2cnc(C#N)cn2)n[nH]1 [Prexasertib] (top concentration 10000 nM) is in? group C

Any idea which band CC(C)Cn1cnc2c(N)nc3ccccc3c21 [Imiquimod] (top concentration 2500 nM) is in? group B

Any idea which band NC[C@@](O)(c1ccc(Cl)cc1)c1ccc(-c2cn[nH]c2)cc1 (top concentration 10000 nM) is in? group C

Any idea which band O=C(Nc1cccnc1)N1CCC(Cc2cccc(Oc3ccc(C(F)(F)F)cn3)c2)CC1 [PF-3845] (top concentration 10000 nM) is in? group C

Any idea which band CCN1CCN(Cc2ccc(Nc3ncc(F)c(-c4cc(F)c5nc(C)n(C(C)C)c5c4)n3)nc2)CC1 [Abemaciclib] (top concentration 2500 nM) is in? group A

Any idea which band CC(=O)Nc1cccc(-n2c(=O)n(C3CC3)c(=O)c3c(Nc4ccc(I)cc4F)n(C)c(=O)c(C)c32)c1 [Trametinib] (top concentration 250 nM) is in? group A

Any idea which band COc1cc2ncnc(Nc3cccc(Cl)c3F)c2cc1OC(=O)N1CCN(C)C[C@H]1C [AZD3759] (top concentration 1000 nM) is in? group B

Any idea which band CN(C)CCOc1ccc(/C(=C(/CCCl)c2ccccc2)c2ccccc2)cc1 [Toremifene] (top concentration 10000 nM) is in? group C

Any idea which band Nc1ncnc2c1nc(Cl)n2[C@@H]1O[C@H](CO)[C@@H](O)[C@H]1O [8-chloro-adenosine] (top concentration 50000 nM) is in? group B
